assay method text: PET/CT imaging in nude mice bearing U87MG xenograft tumor
Format: in vivo
condition info: mouse, tumour and kidneys, 90 min post injection, read-out: tumor/kidneys ratio
observable: tissue to tissue ratio at […]
Please give only the number in your answer, with no unit.

Request: Quick one: give measured tissue to tissue ratio at […] for N=C(N)NCCC[C@@H]1NC(=O)[C@H](CCCCNC(=O)CCC(C(=O)O)N2CCN(CC(=O)O)CCN(CC(=O)O)CC2)NC(=O)[C@@H](Cc2ccccc2)NC(=O)[C@H](CC(=O)O)NC(=O)CNC1=O (stereo partly shown) [[68Ga]NODAGA-RGD, metal not drawn]
Response: 1.6

====

observable: Ki (nM)
I only need the number, in nM, no unit after it.

Request: Tell me its Ki on UniProt P43119: CC(C)Oc1ccc(Cc2ccc(NC3=NCCN3)cc2)cc1.Cl [Ro1138452]
Sequence (P43119 whole entry, species assumed): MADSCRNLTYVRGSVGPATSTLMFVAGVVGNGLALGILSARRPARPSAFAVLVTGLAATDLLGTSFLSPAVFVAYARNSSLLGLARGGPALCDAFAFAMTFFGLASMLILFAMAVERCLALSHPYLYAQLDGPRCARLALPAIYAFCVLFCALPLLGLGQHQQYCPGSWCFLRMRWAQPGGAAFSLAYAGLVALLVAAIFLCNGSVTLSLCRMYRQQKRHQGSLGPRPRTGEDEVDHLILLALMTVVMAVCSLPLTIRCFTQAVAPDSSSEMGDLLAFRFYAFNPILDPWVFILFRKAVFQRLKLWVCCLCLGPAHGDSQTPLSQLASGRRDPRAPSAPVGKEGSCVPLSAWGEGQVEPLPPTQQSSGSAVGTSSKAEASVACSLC
Response: 0.23
